Test Protocol: Solubility assessment: saturated solutions in SGF, FeSSIF and water, concentration by HPLC
Format: physicochemical
Reported Conditions: simulated gastric fluid (SGF), simulated gastric fluid, thermodynamic from solid; SGF pH=1.8, 24 h
Experimental: Form CS3 of ozanimod hydrochloride was suspended into SGF (Simulated gastric fluids, pH=1.8), FeSSIF (Fed state simulated intestinal fluids, pH=5.0) and water to obtain saturated solutions. After being equilibrated for 1 h, 4 h and 24 h, concentrations of the saturated solutions were measured by HPLC.
Counter-ions that a name gives are not always drawn.
Endpoint: solubility at 24 h (µg/mL)
# number only, unit µg/mL dropped from output

Note to self: solubility at 24 h recorded for CC(C)Oc1ccc(-c2nc(-c3cccc4c3CC[C@@H]4NCCO)no2)cc1C#N [Form CS3 of ozanimod hydrochloride, ozanimod hydrochloride] was 200

---

Test Protocol: Solubility assessment: saturated solutions in SGF, FeSSIF and water, concentration by HPLC
Format: physicochemical
Reported Conditions: fed state simulated intestinal fluid (FeSSIF), thermodynamic from solid; FeSSIF pH=5.0, 1 h
Structures can show the parent of a compound that is named as a salt.
Endpoint: solubility at 1 h (µg/mL)
Just the number please, in µg/mL, no unit attached.

So, CC(C)Oc1ccc(-c2nc(-c3cccc4c3CC[C@@H]4NCCO)no2)cc1C#N [Form CS3 of ozanimod hydrochloride, ozanimod hydrochloride] ? Its solubility at 1 h was 2100

---

Test Protocol: Solubility assessment: saturated solutions in SGF, FeSSIF and water, concentration by HPLC
Type: physicochemical
Reported Conditions: simulated gastric fluid (SGF), simulated gastric fluid, thermodynamic from solid; SGF pH=1.8, 4 h
Structures can show the parent of a compound that is named as a salt.
Endpoint: solubility at 4 h (µg/mL)
Kindly provide the numeric value in µg/mL only, without the unit symbol.

solubility at 4 h in this record for CC(C)Oc1ccc(-c2nc(-c3cccc4c3CC[C@@H]4NCCO)no2)cc1C#N [Form CS3 of ozanimod hydrochloride, ozanimod hydrochloride] : 200

---

Test Protocol: Solubility assessment: saturated solutions in SGF, FeSSIF and water, concentration by HPLC
Type: physicochemical
Reported Conditions: water, thermodynamic from solid; H2O, 4 h
Where a name gives a salt, the structure may show the parent alone.
Endpoint: solubility at 4 h
Express your answer as a number followed by its unit.

Per the records, this molecule ( CC(C)Oc1ccc(-c2nc(-c3cccc4c3CC[C@@H]4NCCO)no2)cc1C#N [Form CS3 of ozanimod hydrochloride, ozanimod hydrochloride] ) has solubility at 4 h equal to 1400 µg/mL

---

Test Protocol: Solubility assessment: saturated solutions in SGF, FeSSIF and water, concentration by HPLC
Format: physicochemical
Reported Conditions: water, thermodynamic from solid; H2O, 24 h
Where a name gives a salt, the structure may show the parent alone.
Endpoint: solubility at 24 h (µg/mL)
Use µg/mL as the unit, but write only the number.

The reported solubility at 24 h of the molecule CC(C)Oc1ccc(-c2nc(-c3cccc4c3CC[C@@H]4NCCO)no2)cc1C#N [Form CS3 of ozanimod hydrochloride, ozanimod hydrochloride] was 1300

---

Test Protocol: Solubility assessment: saturated solutions in SGF, FeSSIF and water, concentration by HPLC
Assay type: physicochemical
Reported Conditions: simulated gastric fluid (SGF), simulated gastric fluid, thermodynamic from solid; SGF pH=1.8, 1 h
Structures can show the parent of a compound that is named as a salt.
Endpoint: solubility at 1 h (µg/mL)
// note: answer is a bare numeric in µg/mL

# solubility at 1 h (molecule: CC(C)Oc1ccc(-c2nc(-c3cccc4c3CC[C@@H]4NCCO)no2)cc1C#N [Form CS3 of ozanimod hydrochloride, ozanimod hydrochloride] ) is 200
